Attribution: patent US20240025949A1

molecular target: human angiotensin 2 type 1 receptor (human); test: cell-based or functional assay
// assign MET if b-arrestin2 EC50 falls strictly below 0.2 µM, else NOT MET (ties count as NOT MET)

Example entries and their recorded answers appear below.
- substance: "SEQ ID NO: 6 (Sar-Arg-Val-Gly-Val-His-Pro-Gly-NH2) (peptide)"
  assigned.category: "NOT MET"
- substance: "SEQ ID NO: 29 (Sar-Arg-Val-OMTyr-Ile-His-Pro-Ala-OH) (peptide)"
  assigned.category: "NOT MET"

Strictly below 0.2 µM: is that where b-arrestin2 EC50 of SEQ ID NO: 65 (N-Me-Asp-Arg-Val-Tyr-Phe-His-Pro-NH2) (peptide) sits?
NOT MET
